Data provenance is patent US20200131274A1.

target: cynomolgus PSMA, full-length, on CHO cells (cynomolgus, UniProt A0A2K5VNZ0 1-750); assay: cell-based or functional assay
readout: His-ZAP cell killing, cyno PSMA Average EC50 (nM)
Expressed in nM, but write only the number.

>  <binder>
1.18-6GS-2.15 (bispecific antibody) EVQLLESGGGLVQPGGSLRLSCAASGFSFSSYALSWVRQAPGKGLEWVSSIGENNATTDYAASVKGRFTISRDNSKNTLYLQMNSLRVEDTAVYYCVKDGVHWGQGTLVTVSSGGGGSGGGGSGGGGSGGGGSGGGGSGGGGSEVQLVESGGGVVQPGRSLRLSCAASGFSFSGYGLHWVRQAPGKGLEWVAYISYDKSNKYYADKVKGRFTISRDNSKNTLYLQMNSLRAEDTAVYYCAKDPAWGLRLGESSSYDFDIWGQGTMVTVSS

>  <experimentalResult>
0.01

$$$$

Recall and state the measured His-ZAP cell killing, cyno PSMA Average EC50 for 1.16-6GS-2.15 (bispecific antibody) EVQLLESGGGLVQPGGSLRLSCAASGFSFSSYALSWVRQAPGKGLEWVSSIGENNHTTDYADTVKGRFTISRDNSKNTLYLQMNSLRVEDTAVYYCVKDGVHWGQGTLVTVSSGGGGSGGGGSGGGGSGGGGSGGGGSGGGGSEVQLVESGGGVVQPGRSLRLSCAASGFSFSGYGLHWVRQAPGKGLEWVAYISYDKSNKYYADKVKGRFTISRDNSKNTLYLQMNSLRAEDTAVYYCAKDPAWGLRLGESSSYDFDIWGQGTMVTVSS .
0.011
